Tested on: Plasmodium falciparum
TEST: Antimalarial activity against multidrug resistant Plasmodium falciparum NHP1337 assessed as growth inhibition after 72 hrs by SYBR Green based fluorescence assay
Type: functional, organism-based
EXPERIMENTAL_CONDITIONS: Plasmodium falciparum, NHP1337, 72 h
MEASURED_ENDPOINT: pIC50
In plain terms, pIC50 is the concentration in mol/L turned into minus its base-10 logarithm.

Here is how some compounds turned out for pIC50.
CC(=O)O[C@@H]1[C@@H](OC(=O)/C=C\c2ccc(O)cc2)[C@H](Oc2c(-c3ccc(O)cc3)oc3cc(O)cc(O)c3c2=O)O[C@H](COC(=O)/C=C/c2ccc(O)cc2)[C@H]1OC(C)=O = 5.30
C=C(C)[C@@H]1CC[C@]2(CO)CC[C@]3(C)[C@H](CC[C@@H]4[C@@]5(C)CC[C@H](O)[C@@](C)(COC(=O)/C=C/c6ccc(O)cc6)[C@@H]5CC[C@]43C)[C@@H]12 = 6.07
C=C(C)[C@@H]1CC[C@]2(CO)CC[C@]3(C)[C@H](CC[C@@H]4[C@@]5(C)CC[C@H](O)[C@@](C)(COC(=O)/C=C/c6ccc(O)c(OC)c6)[C@@H]5CC[C@]43C)[C@@H]12 (stereo in doubt; 3) = 6.57

So what pIC50 did C=C(C)[C@@H]1CC[C@]2(CO)CC[C@]3(C)[C@H](CC[C@@H]4[C@@]5(C)CC[C@H](OC(=O)/C=C/c6ccc(O)c(OC)c6)[C@@](C)(CO)[C@@H]5CC[C@]43C)[C@@H]12 get with Plasmodium falciparum?
5.64

Now the same for C[C@@H]1O[C@@H](Oc2c(-c3ccc(O)cc3)oc3cc(O)cc(O)c3c2=O)[C@H](OC(=O)/C=C/c2ccc(O)cc2)[C@H](OC(=O)/C=C\c2ccc(O)cc2)[C@H]1O
5.40

Now the same for CC(=O)O[C@@H]1[C@@H](OC(=O)/C=C/c2ccc(O)cc2)[C@H](Oc2c(-c3ccc(O)cc3)oc3cc(O)cc(O)c3c2=O)O[C@H](COC(=O)/C=C/c2ccc(O)cc2)[C@H]1OC(C)=O
5.68

Now the same for C=C(C)[C@@H]1CC[C@]2(CO)CC[C@]3(C)[C@H](CC[C@@H]4[C@@]5(C)CC[C@H](O)[C@@](C)(COC(=O)/C=C\c6ccc(O)cc6)[C@@H]5CC[C@]43C)[C@@H]12
5.82

Now the same for C[C@@H]1O[C@@H](Oc2c(-c3ccc(O)cc3)oc3cc(O)cc(O)c3c2=O)[C@H](OC(=O)/C=C\c2ccc(O)cc2)[C@H](OC(=O)/C=C\c2ccc(O)cc2)[C@H]1O
5.15

Now the same for C=C(C)[C@@H]1CC[C@]2(CO)CC[C@]3(C)[C@H](CC[C@@H]4[C@@]5(C)CC[C@H](OC(=O)/C=C/c6ccc(O)cc6)[C@@](C)(CO)[C@@H]5CC[C@]43C)[C@@H]12 (stereo in doubt)
5.80

Now the same for COc1cc(O)c(-c2c(C)cc(O)c3c2C(=O)c2cccc(O)c2C3=O)c(O)c1C(C)=O
5.30

###

Parameter: Ratio IC50. Scope: all listed entries.
TEST: Resistance index, ratio of IC50 for multidrug resistant Plasmodium falciparum NHP1337 to IC50 for multidrug sensitive Plasmodium falciparum HB3
Type: functional
Would you mind answering with just the numeric figure?

Here is how some compounds turned out for Ratio IC50.
C=C(C)[C@@H]1CC[C@]2(CO)CC[C@]3(C)[C@H](CC[C@@H]4[C@@]5(C)CC[C@H](O)[C@@](C)(CO)[C@@H]5CC[C@]43C)[C@@H]12 = 1.5
C[C@@H]1O[C@@H](Oc2c(-c3ccc(O)cc3)oc3cc(O)cc(O)c3c2=O)[C@H](OC(=O)/C=C\c2ccc(O)cc2)[C@H](OC(=O)/C=C/c2ccc(O)cc2)[C@H]1O = 8.2
C=C(C)[C@@H]1CC[C@]2(CO)CC[C@]3(C)[C@H](CC[C@@H]4[C@@]5(C)CC[C@H](OC(=O)/C=C/c6ccc(O)cc6)[C@@](C)(CO)[C@@H]5CC[C@]43C)[C@@H]12 (stereo in doubt) = 0.7
CC(=O)O[C@@H]1[C@@H](OC(=O)/C=C\c2ccc(O)cc2)[C@H](Oc2c(-c3ccc(O)cc3)oc3cc(O)cc(O)c3c2=O)O[C@H](COC(=O)/C=C\c2ccc(O)cc2)[C@H]1OC(C)=O = 1.8

Note: attention shifts to another entry.
# Ratio IC50 lookup, item CC(=O)O[C@@H]1[C@@H](OC(=O)/C=C/c2ccc(O)cc2)[C@H](Oc2c(-c3ccc(O)cc3)oc3cc(O)cc(O)c3c2=O)O[C@H](COC(=O)/C=C/c2ccc(O)cc2)[C@H]1OC(C)=O
3.5
